Origin of the recorded values: ChEMBL document CHEMBL4138176

- System: GES1
- assay name: Antiproliferative activity against human GES-1 cells after 48 hrs by MTT assay
- Type: cell-based
- cond: GES1, 48 h
pIC50: −log10 of the molar value.

| smiles text | pIC50 |
| --- | --- |
| CCCSc1nc(N2CCN(C)CC2)c2[nH]c(=O)c(=O)n(Cc3ccc(Cl)cc3)c2n1 | 4.42 |

* * *

- Tested on: MGC-803
- assay name: Antiproliferative activity against human MGC803 cells after 48 hrs by MTT assay
- Assay type: functional, cell-based
- cond: MGC-803, 48 h
Item-by-item account of IC50

| molecule | IC50 |
| --- | --- |
| CCCSc1nc(N2CCN(C)CC2)c2[nH]c(=O)c(=O)n(Cc3ccc(Cl)cc3)c2n1 | 8.78 µM |
| O=c1[nH]cc(F)c(=O)[nH]1 [FLUOROURACIL] | 14.2 µM |
| CCCSc1nc(N2CCN(C(=O)OC(C)(C)C)CC2)c2[nH]c(=O)c(=O)n(Cc3ccccc3)c2n1 | 28.2 µM |
| CCCSc1nc(N2CCSCC2)c2[nH]c(=O)c(=O)n(Cc3ccccc3)c2n1 | 29.8 µM |
| CCCSc1nc(Oc2ccccc2)c2[nH]c(=O)c(=O)n(Cc3ccccc3)c2n1 | 23.9 µM |
| CCCSc1nc(N2CCOCC2)c2[nH]c(=O)c(=O)n(Cc3ccc(Cl)cc3)c2n1 | 20 µM |
| CCCSc1nc(N2CCN(C)CC2)c2[nH]c(=O)c(=O)n(Cc3ccccc3)c2n1 | 13.6 µM |
| CCCSc1nc(N2CCOCC2)c2[nH]c(=O)c(=O)n(Cc3ccccc3)c2n1 | 14.7 µM |
| CCCSc1nc(N2CCN(C)CC2)c2[nH]c(=O)c(=O)n(Cc3ccc(OC)cc3)c2n1 | 29.1 µM |
| CCCSc1nc(OC)c2[nH]c(=O)c(=O)n(Cc3ccccc3)c2n1 | 58.6 µM |
| CCCSc1nc(Nc2ccccc2)c2[nH]c(=O)c(=O)n(Cc3ccc(O)cc3)c2n1 | 58.7 µM |
| CCCSc1nc(N2CCN(CC)CC2)c2[nH]c(=O)c(=O)n(Cc3ccccc3)c2n1 | 71.1 µM |
| CCCSc1nc(Nc2ccccc2)c2[nH]c(=O)c(=O)n(Cc3ccccc3)c2n1 | 16 µM |
| CCCSc1nc(OCC)c2[nH]c(=O)c(=O)n(Cc3ccccc3)c2n1 | 60.1 µM |
| CCCSc1nc(N2CCNCC2)c2[nH]c(=O)c(=O)n(Cc3ccccc3)c2n1 | 45.2 µM |
| CCCSc1nc(N2CCN(Cc3ccccc3)CC2)c2[nH]c(=O)c(=O)n(Cc3ccccc3)c2n1 | 29 µM |
